tested system: human MS4A4A (human, UniProt Q96JQ5 1-239)
assay: FACS, HEK293, supernatant
Recorded Human 4A:parental cell ratio values for a group of binders are listed next.
State the result as a value with its unit after it.

The cases that follow already have their Human 4A:parental cell ratio on record.
anti-MS4A4A antibody 4A-17 (antibody, V domains shown, murine hybridoma antibody) VH: QVQLQQSAAELMKPGASVKLSCKATGYTFTGYWIEWLKQRPGHGLEWIGEILPGIGNTKYSEKFKGKATFTADTSSNTAYMQLSSLTTEDSAIYYCARSLLRAMDYWGQGTSVTVSS VL: QIVLTQSPAIMSASPGEKVTMTCSAISSISYMHWYQLKPGTSPKRWIYDTSKLASGVPARFSGSGSGTSYSLTISSMEAEDAATYYCHQRSSYPYTFGGGTKLEIK: 4.83 ratio
anti-MS4A4A antibody 4A-3 (antibody, V domains shown, murine hybridoma antibody) VH: QIQLVQSGPELKTPGETVKISCKSSGYTFTKYGMNWVKQAPGKGLKWMAWINTYTAEPTYGDDFKGRFALSLETSANTAYLQINNLKNEDTATYFCARSAELVRHYYALDYWGQGTSVTVSS VL: DVLMTQTPLSLPVSLGDQASISCRSSQSLVHSNGNIYLEWFLQKPGQSLKILIYKVSNRFSGVPDRFSGSGSGTDFTLKISRVEADDLGVYYCSQGSHVPPTFGAGTKLELR: 7.31 ratio
anti-MS4A4A antibody 4A-23 (antibody, V domains shown, murine hybridoma antibody) VH: EVQLQQSGPELVKPGASVKMSCQASGYTFTDYNIHWVKQSHGKSLKWIGYINPNNDDTTFNQKFKGKATLTVNKSSSTAYMELRSLTSEDSAVYYCARSPYCYFDVWGTGTTVTVSS VL: DIQMTQSPSSLSASLGGKVTITCKASQDINKYIVWYQHKPGKGPRLLINYTSTLQPGIPSRFSGGGSGGDYSFSISNLEPEDIATYYCLQYDNLWTFGGGTKLEIK: 1.96 ratio

Let us move to another entry and its Human 4A:parental cell ratio.
Human 4A:parental cell ratio reading for anti-MS4A4A antibody 4A-7 (antibody, V domains shown, murine hybridoma antibody) VH: EIQLQQTGPELVKPGASVKISCKASGYSFTDYVMIWVKQSHGKSLEWIGNINPYYGSTSYNLKFKGKATLTVDKSSSTAYMQLKSLTSEDSAVYYCARYGYDALDNWGQGTSVTVSS VL: DVLLTQTPLSLPVSLGDQASISCRSSQSIVHSNGNTYLDWSLQKPGQSPKLLIYRVSNRFSGVPDRFSGSGSGTDFTLKISRVEAEDLGVYYCFQGSHVPLTFGAGTKLELK : 7.97 ratio
